- Test Description: molar heat capacity at constant pressure
- Applied Conditions: 283 K; 101.33 kPa; Crystal; Small sample (50 mg) DSC
Criterion: molar heat capacity at constant pressure strictly less than 200 J/K/mol. Met: met. Not met: not met.

Find out if reported molar heat capacity at constant pressure for "NC(N)=C([N+](=O)[O-])[N+](=O)[O-]" is less than 200 J/K/mol met

Find out if reported molar heat capacity at constant pressure for CC1CNC(=C([N+](=O)[O-])[N+](=O)[O-])N1 (stereo not given) is less than 200 J/K/mol not met

---

- Test Description: molar heat capacity at constant pressure
- Applied Conditions: 298 K; 101.33 kPa; Crystal; Small sample (50 mg) DSC
Numbers after ± are expanded uncertainties.
Endpoint Label: molar heat capacity at constant pressure
Note: a bare number is incomplete; add the unit.

Value of measured molar heat capacity at constant pressure for the entry "NC(N)=C([N+](=O)[O-])[N+](=O)[O-]" : 176.51 ± 3.6 J/K/mol

Value of measured molar heat capacity at constant pressure for the entry "O=[N+]([O-])C(=C1NCCN1)[N+](=O)[O-]" : 205.28 ± 4.2 J/K/mol

Value of measured molar heat capacity at constant pressure for the entry CC1CNC(=C([N+](=O)[O-])[N+](=O)[O-])N1 (stereo not given) : 218.81 ± 4.3 J/K/mol

Value of measured molar heat capacity at constant pressure for the entry "O=[N+]([O-])C(=C1NCCCN1)[N+](=O)[O-]" : 207.71 ± 4.1 J/K/mol

Value of measured molar heat capacity at constant pressure for the entry "O=[N+]([O-])C(=C1NCCCCN1)[N+](=O)[O-]" : 215.31 ± 4.2 J/K/mol
